- Method Summary: solvent given as SMILES
- Conditions: in O
Readout Type: emission maximum (nm)

Previously resolved entries follow.
Smiles | emission maximum / nm
CC1(C)C(=O)C=Cc2ccc(N3CCC3)cc21 | 555
CCOC(=O)c1c(CSc2ccccc2)n(C)c2cc(Br)c(O)c(CN(C)C)c12 | 350
CCCCn1c2ccc(/C=C(\C#N)c3ccc([N+](=O)[O-])cc3)cc2c2cc(Cn3c(-c4ccc5c(c4)c4ccccc4n5CCCC)nc4ccccc43)ccc21 | 570

A. CC/[NH+]=c1\cc2oc3cc(NCCO)c4ccccc4c3nc-2cc1C
B. CN(C)CCCN1c2ccccc2CCc2ccc(Cl)cc21
Q: Could you point out whether the larger emission maximum belongs to A or to B ? I would appreciate it if you answered with the label of your choice.
Result: A

// data source = the Deep4Chem optical property database
